System: PDC 899932-113-R3-J6 complex spheroid viability;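 also: spheroids exposed to agents for seven days before readout; 100% = DMSO vehicle control wells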
Test: Anticancer human tumor 899932-113-R3-J6-PDC patient-derived melanoma cell line growth inhibition [RAS]
Conditions: second compound 0.03 µM; first compound 3.16 µM; hits give low values
Excerpt: RAS pathway inhibitors in Combinations in Complex Spheroids A high-throughput screen of multi-cell type tumor spheroids was designed to identify active combinations of RAS pathway inhibitors and targeted small molecules. Complex spheroids include a stromal component modeled by human endothelial cells (HUVEC) and fibroblasts modeled by human mesenchymal stem cells (MSCs). […] Compounds. […] If the clinical Cmax for an agent had not been determined, the highest concentration tested was 10 microM. […]
Below, each of the molecules is paired with its reported viability, T/C value.
Numbers only here, please. The scale is %.

[
  {
    "molecule": "CC(Nc1ccc2c(c1)OCCn1cc(N3C(=O)OCC3C(F)F)nc1-2)C(N)=O (stereo unspecified) + CCn1c(-c2cc(N3CCN(C)CC3)cnc2C(C)OC)c2c3cc(ccc31)-c1csc(n1)CC(NC(=O)C1CC1C)C(=O)N1CCCC(N1)C(=O)OCC(C)(C)C2",
    "result type": "viability, T/C",
    "reading": 0.45
  },
  {
    "molecule": "CC(C)NCC(C(=O)N1CCN(c2ncnc3c2C(C)CC3O)CC1)c1ccc(Cl)cc1 (stereo unspecified) + CCn1c(-c2cc(N3CCN(C)CC3)cnc2C(C)OC)c2c3cc(ccc31)-c1csc(n1)CC(NC(=O)C1CC1C)C(=O)N1CCCC(N1)C(=O)OCC(C)(C)C2",
    "result type": "viability, T/C",
    "reading": 0.99
  },
  {
    "molecule": "CC(=O)OC12COC1CC(O)C1(C)C(=O)C(O)C3=C(C)C(OC(=O)C(O)C(NC(=O)OC(C)(C)C)c4ccccc4)CC(O)(C(OC(=O)c4ccccc4)C21)C3(C)C (stereo unspecified) + CCn1c(-c2cc(N3CCN(C)CC3)cnc2C(C)OC)c2c3cc(ccc31)-c1csc(n1)CC(NC(=O)C1CC1C)C(=O)N1CCCC(N1)C(=O)OCC(C)(C)C2",
    "result type": "viability, T/C",
    "reading": 1.72
  },
  {
    "molecule": "CC1(O)CCCC1n1c(=O)c(C(F)F)cc2cnc(NC3CCN(S(C)(=O)=O)CC3)nc21 (stereo unspecified) + CCn1c(-c2cccnc2C(C)OC)c2c3cc(ccc31)N1CCOC(CC(NC(=O)C(C(C)C)N(C)C(=O)C3(F)CCN(C(=O)C#CC(C)(C)N(C)C)CC3)C(=O)N3CCCC(N3)C(=O)OCC(C)(C)C2)C1",
    "result type": "viability, T/C",
    "reading": 59.7
  }
]

Consider the record given below.
*Q* For NC1c2ccccc2OC12CCN(c1cnc3c(N4CCCc5ncccc54)n[nH]c3n1)CC2 (stereo unspecified) + CCn1c(-c2cccnc2C(C)OC)c2c3cc(ccc31)N1CCOC(CC(NC(=O)C(C(C)C)N(C)C(=O)C3(F)CCN(C(=O)C#CC(C)(C)N(C)C)CC3)C(=O)N3CCCC(N3)C(=O)OCC(C)(C)C2)C1 , what is its reported viability, T/C?
*A* 112
